I'd appreciate it if you could supply IC50 values for the items below.
- EXPERIMENTAL TARGET: GPR84 (Homo sapiens, UniProt Q9NQS5)
- Construct: expressed in transfected cells
- Sequence (Q9NQS5 whole entry): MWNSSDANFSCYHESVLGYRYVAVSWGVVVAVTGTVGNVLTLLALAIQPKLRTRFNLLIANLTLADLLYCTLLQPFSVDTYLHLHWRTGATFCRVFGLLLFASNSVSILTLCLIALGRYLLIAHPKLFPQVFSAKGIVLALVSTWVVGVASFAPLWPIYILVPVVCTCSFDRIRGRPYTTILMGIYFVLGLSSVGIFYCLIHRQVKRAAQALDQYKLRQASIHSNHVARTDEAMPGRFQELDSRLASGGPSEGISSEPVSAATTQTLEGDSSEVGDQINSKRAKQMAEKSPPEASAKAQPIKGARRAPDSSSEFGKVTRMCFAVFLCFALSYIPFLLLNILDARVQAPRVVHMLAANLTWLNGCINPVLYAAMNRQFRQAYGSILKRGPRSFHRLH
- TEST DETAILS: GPR84 [35S]GTPγS binding assay, Tris buffer (alternative)
- Assay type: biochemical
- DETAILS: 3,3′ di indolylmethane at EC80, membranes from stable cell line over expressing GPR84, read-out: Alternative GPR84 assay GTPγS IC50 (GPR84-2)

Field: example entries. Status: answers known.
| COMPOUND | IC50 |
| --- | --- |
| Cc1ccc(-c2ccc3c(c2)CCn2c-3cc(OCC3COc4ncccc4O3)nc2=O)cn1 (centres unmarked) | 0.01 to 100 nM |
| O=c1nc(OCC2COc3ncccc3O2)cc2n1CCc1cc(C#Cc3ccncc3)ccc1-2 (centres unmarked) | 0.01 to 100 nM |
| COc1ccccc1-c1ccc2c(c1)CCn1c-2cc(OCC2COc3ncccc3O2)nc1=O (centres unmarked) | 100 to 500 nM |
| Cc1noc(COc2ccc3c(c2)CCn2c-3cc(OCC3COc4ncccc4O3)nc2=O)n1 (centres unmarked) | 0.01 to 100 nM |
| N#Cc1ccccc1-c1ccc2c(c1)CCn1c-2cc(OCC2COc3ncccc3O2)nc1=O (centres unmarked) | 100 to 500 nM |
| Cc1cccc(COc2ccc3c(c2)CCn2c-3cc(OCC3CCCO3)nc2=O)c1 (centres unmarked) | 100 to 500 nM |
| O=c1nc(OCC2COc3ncccc3O2)cc2n1CCc1cc(-c3cncnc3)ccc1-2 (centres unmarked) | 0.01 to 100 nM |

Ask: Give the reported value of IC50 for this record: CC(C)(C)C#Cc1ccc2c(c1)CCn1c-2cc(OCC2CCCO2)nc1=O (centres unmarked)
Result: 500 to 1000 nM

====

- EXPERIMENTAL TARGET: GPR84 (Homo sapiens)
- Construct: expressed in transfected cells
- TEST DETAILS: GPR84 [35S]GTPγS binding assay, HEPES buffer
- Assay type: biochemical
- DETAILS: 3,3′ di indolylmethane at EC80, membranes from stable cell line over expressing GPR84
pIC50: −log10 of the molar value.
READOUT: pIC50

Here is how some compounds turned out for pIC50.
| COMPOUND | pIC50 |
| --- | --- |
| COc1ccc(-c2ccc3c(c2)CCn2c-3cc(OCC3CCCO3)nc2=O)cc1 (stereo not drawn) | 6.30 to 7.00 |
| CN1CCCC1CCOc1ccc2c(c1)CCn1c-2cc(OCC2COc3ccccc3O2)nc1=O (stereo not drawn) | 6.30 to 7.00 |
| CCOC(=O)c1ccc(COc2ccc3c(c2)CCn2c-3cc(OCC3COc4ccccc4O3)nc2=O)o1 (stereo not drawn) | 7.00 to 11.00 |
| COc1ccc(OC)c(-c2ccc3c(c2)CCn2c-3cc(OCC3COc4ncccc4O3)nc2=O)c1 (stereo not drawn) | 7.00 to 11.00 |

// input: 7 compounds below; output: pIC50 for each
1. O=c1nc(OCC2CCCO2)cc2n1CCc1cc(OCCOc3ccc(Cl)cc3)ccc1-2 (stereo not drawn)
2. O=c1nc(OCC2COc3ncccc3O2)cc2n1CCc1cc(CN3CCOCC3)ccc1-2 (stereo not drawn)
3. O=c1nc(OCC2COc3ccccc3O2)cc2n1CCc1cc(OCCN3CCOCC3)ccc1-2 (stereo not drawn)
4. COc1ccc(OCCOc2ccc3c(c2)CCn2c-3cc(OCC3CCCO3)nc2=O)cc1 (stereo not drawn)
5. N#Cc1ccc(COc2ccc3c(c2)CCn2c-3cc(OCC3CCCO3)nc2=O)cc1 (stereo not drawn)
6. N#Cc1ccc(-c2ccc3c(c2)CCn2c-3cc(OCC3COc4ncccc4O3)nc2=O)cn1 (stereo not drawn)
7. CCOc1ncccc1-c1ccc2c(c1)CCn1c-2cc(OCC2COc3ncccc3O2)nc1=O (stereo not drawn)

Result:
1: 7.00 to 11.00; 2: 7.00 to 11.00; 3: 7.00 to 11.00; 4: 7.00 to 11.00; 5: 7.00 to 11.00; 6: 7.00 to 11.00; 7: 7.00 to 11.00

Batch lookup, pIC50 per entry.
1. CC(C)(C)c1nc(COc2ccc3c(c2)CCn2c-3cc(OCC3CCCO3)nc2=O)no1 (stereo not drawn)
2. CN(C)c1ccc(-c2ccc3c(c2)CCn2c-3cc(OCC3CCCO3)nc2=O)cc1 (stereo not drawn)
3. CN1CCCC1CCOc1ccc2c(c1)CCn1c-2cc(OCC2COc3ncccc3O2)nc1=O (stereo not drawn)
4. O=c1nc(OCC2COc3ncccc3O2)cc2n1CCc1cc(OCCN3CCOCC3)ccc1-2 (stereo not drawn)

Result:
1: 7.00 to 11.00; 2: 6.30 to 7.00; 3: 6.30 to 7.00; 4: 6.30 to 7.00

====

Would you kindly list pIC50 for each of these compounds?
- EXPERIMENTAL TARGET: GPR84 (Homo sapiens, UniProt Q9NQS5)
- Construct: expressed in transfected cells
- TEST DETAILS: GPR84 [35S]GTPγS binding assay, HEPES buffer
- Assay type: biochemical
- DETAILS: 3,3′ di indolylmethane at EC80, membranes from stable cell line over expressing GPR84
pIC50: −log10 of the molar value.

Check out these entries, answers already filled in.
| COMPOUND | REPORTED MEASUREMENT |
| --- | --- |
| COc1nccc(-c2ccc3c(c2)CCn2c-3cc(OCC3COc4ncccc4O3)nc2=O)c1Cl (stereo not drawn) | 7.00 to 11.00 |
| NC1(C#Cc2ccc3c(c2)CCn2c-3cc(OCC3COc4ncccc4O3)nc2=O)CCCCC1 (stereo not drawn) | 6.30 to 7.00 |
| O=c1nc(OCC2COc3ncccc3O2)cc2n1CCc1cc(CN3CCCC3)ccc1-2 (stereo not drawn) | 6.30 to 7.00 |
| CCCCNCC#Cc1ccc2c(c1)CCn1c-2cc(OCC2COc3ncccc3O2)nc1=O (stereo not drawn) | 6.30 to 7.00 |
| COc1cccc(OCCOc2ccc3c(c2)CCn2c-3cc(OCC3CCCO3)nc2=O)c1 (stereo not drawn) | 7.00 to 11.00 |
| CC(C)CC(O)C#Cc1ccc2c(c1)CCn1c-2cc(OCC2COc3ncccc3O2)nc1=O (stereo not drawn) | 7.00 to 11.00 |
| C=CCOc1ccc2c(c1)CCn1c-2cc(OCC2COc3ncccc3O2)nc1=O (stereo not drawn) | 6.30 to 7.00 |
| O=C(COc1ccc2c(c1)CCn1c-2cc(OCC2COc3ccccc3O2)nc1=O)N1CCCC1 (stereo not drawn) | 6.30 to 7.00 |
| O=c1nc(OCC2COc3ncccc3O2)cc2n1CCc1cc(OCc3noc(C4CC4)n3)ccc1-2 (stereo not drawn) | 7.00 to 11.00 |
| O=c1nc(OCC2COc3ncccc3O2)cc2n1CCc1ccccc1-2 (stereo not drawn) | 7.00 to 11.00 |

Batch lookup, pIC50 per entry.
1. O=c1nc(OCC2CCCO2)cc2n1CCc1cc(OCc3ccccc3Cl)ccc1-2 (stereo not drawn)
2. Cc1ccc(COc2ccc3c(c2)CCn2c-3cc(OCC3CCCO3)nc2=O)cc1 (stereo not drawn)
3. CC(C)(Oc1ccc2c(c1)CCn1c-2cc(OCC2COc3ccccc3O2)nc1=O)C(=O)N1CCOCC1 (stereo not drawn)
4. O=c1nc(OCC2CCCO2)cc2n1CCc1cc(OCc3ccc(F)cc3)ccc1-2 (stereo not drawn)
5. O=c1nc(OCC2CCCO2)cc2n1CCc1cc(OCc3noc(-c4ccccc4)n3)ccc1-2 (stereo not drawn)
6. O=C(COc1ccc2c(c1)CCn1c-2cc(OCC2COc3ccccc3O2)nc1=O)Nc1ccccc1 (stereo not drawn)
7. N#CCOc1ccc2c(c1)CCn1c-2cc(OCC2COc3ccccc3O2)nc1=O (stereo not drawn)

Result:
1. 6.30 to 7.00
2. 7.00 to 11.00
3. 6.00 to 6.30
4. 6.30 to 7.00
5. 7.00 to 11.00
6. 7.00 to 11.00
7. 7.00 to 11.00

Lab note: each compound below needs its pIC50 filled in.
1. O=c1nc(OCC2CCCO2)cc2n1CCc1cc(OCC3CCCO3)ccc1-2 (stereo not drawn)
2. O=c1nc(OCC2COc3ccccc3O2)cc2n1CCc1cc(OCC3CCCO3)ccc1-2 (stereo not drawn)
3. COc1ccc2c(c1)CCn1c-2cc(OCC2Cc3ccccc3O2)nc1=O (stereo not drawn)

Result:
1. 6.00 to 6.30
2. 7.00 to 11.00
3. 6.00 to 6.30

====

Field: pIC50. Provide a value for each of the molecules that follow.
- EXPERIMENTAL TARGET: GPR84 (Homo sapiens, UniProt Q9NQS5)
- Construct: expressed in transfected cells
- TEST DETAILS: GPR84 [35S]GTPγS binding assay, Tris buffer (alternative)
- Type: biochemical
- DETAILS: 3,3′ di indolylmethane at EC80, membranes from stable cell line over expressing GPR84, read-out: Alternative GPR84 assay GTPγS IC50 (GPR84-2)
pIC50: −log10 of the molar value.

| MOLECULE | READOUT | REPORTED MEASUREMENT |
| --- | --- | --- |
| O=c1nc(OCC2CCCO2)cc2n1CCc1cc(C#CC3CC3)ccc1-2 (stereo not drawn) | pIC50 | 6.30 to 7.00 |
| COc1ccc(-c2ccc3c(c2)CCn2c-3cc(OCC3COc4ncccc4O3)nc2=O)cn1 (stereo not drawn) | pIC50 | 7.00 to 11.00 |
| Cc1noc(C)c1-c1ccc2c(c1)CCn1c-2cc(OCC2CCCO2)nc1=O (stereo not drawn) | pIC50 | 6.30 to 7.00 |

Lab note: each molecule below needs its pIC50 filled in.
1. O=c1nc(OCC2CCCO2)cc2n1CCc1cc(-c3cccc4ccccc34)ccc1-2 (stereo not drawn)
2. O=c1nc(OCC2COc3ncccc3O2)cc2n1CCc1cc(-c3cccnc3)ccc1-2 (stereo not drawn)
3. O=c1nc(OCC2COc3ncccc3O2)cc2n1CCc1cc(C#Cc3cccnc3)ccc1-2 (stereo not drawn)
4. O=c1nc(OCC2CCCO2)cc2n1CCc1cc(-c3ccc(Cl)s3)ccc1-2 (stereo not drawn)
5. Cc1cc(COc2ccc3c(c2)CCn2c-3cc(OCC3COc4ncccc4O3)nc2=O)nn1C (stereo not drawn)
6. COCC#Cc1ccc2c(c1)CCn1c-2cc(OCC2COc3ncccc3O2)nc1=O (stereo not drawn)
7. O=c1nc(OCC2CCCO2)cc2n1CCc1cc(OCc3cccc4ccccc34)ccc1-2 (stereo not drawn)
8. COc1ccc(-c2ccc3c(c2)CCn2c-3cc(OCC3CCCO3)nc2=O)cn1 (stereo not drawn)

Result:
1: 6.00 to 6.30; 2: 7.00 to 11.00; 3: 6.30 to 7.00; 4: 6.00 to 6.30; 5: 7.00 to 11.00; 6: 6.30 to 7.00; 7: 6.00 to 6.30; 8: 6.30 to 7.00

Please state pIC50 for every molecule in the list that follows.
1. CN(C)c1ccccc1-c1ccc2c(c1)CCn1c-2cc(OCC2COc3ncccc3O2)nc1=O (stereo not drawn)
2. NC(=O)c1cccc(-c2ccc3c(c2)CCn2c-3cc(OCC3COc4ncccc4O3)nc2=O)c1 (stereo not drawn)
3. CC(C)(C)C#Cc1ccc2c(c1)CCn1c-2cc(OCC2COc3ncccc3O2)nc1=O (stereo not drawn)

Result:
1: 6.30 to 7.00; 2: 7.00 to 11.00; 3: 7.00 to 11.00

Quick request: pIC50 for each listed item, please.
1. O=c1nc(OCC2COc3ncccc3O2)cc2n1CCc1cc(-c3ccc4[nH]ncc4c3)ccc1-2 (stereo not drawn)
2. O=c1nc(OCC2COc3ncccc3O2)cc2n1CCc1cc(C#CCCO)ccc1-2 (stereo not drawn)
3. O=c1nc(OCC2CCCO2)cc2n1CCc1cc(-c3ccc4ccccc4c3)ccc1-2 (stereo not drawn)
4. O=c1nc(OCC2COc3ncccc3O2)cc2n1CCc1cc(C#CC3(O)CCCC3)ccc1-2 (stereo not drawn)
5. O=c1nc(OCC2COc3ncccc3O2)cc2n1CCc1cc(OCc3ccncc3)ccc1-2 (stereo not drawn)
6. N#CCCC#Cc1ccc2c(c1)CCn1c-2cc(OCC2COc3ncccc3O2)nc1=O (stereo not drawn)
7. O=c1nc(OCC2COc3ncccc3O2)cc2n1CCc1cc(C#CCO)ccc1-2 (stereo not drawn)

Result:
7.00 to 11.00
7.00 to 11.00
7.00 to 11.00
7.00 to 11.00
7.00 to 11.00
7.00 to 11.00
7.00 to 11.00

Value source: patent US9708312B2
